Sourced from the RNAGym collection of RNA variant scans (doi:10.7554/elife.80360)

B1: HDV Ribozyme (parent)
chain: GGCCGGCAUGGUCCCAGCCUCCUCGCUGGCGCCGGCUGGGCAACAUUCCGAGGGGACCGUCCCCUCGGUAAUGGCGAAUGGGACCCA

Variants of: B1
Protocol text: self-cleavage, relative activity (ratio to wild type); higher = more cleavage; co-transcriptional
Observable: self-cleavage

INSERT INTO results (mutations, observable, measured) VALUES
  ('G10C C49A', 'self-cleavage', 0.443),
  ('G52U U72A', 'self-cleavage', 0.496),
  ('C18A C24U', 'self-cleavage', 0.104),
  ('A45U U79G', 'self-cleavage', 0.506),
  ('G40C G55U', 'self-cleavage', 0.205),
  ('A43U U65G', 'self-cleavage', 0.302),
  ('U23C C44A', 'self-cleavage', 0.462),
  ('U12G G73A', 'self-cleavage', 0.323),
  ('G2U C14U', 'self-cleavage', 0.0468),
  ('U47A A56G', 'self-cleavage', 0.965),
  ('G28U G40C', 'self-cleavage', 0.215),
  ('U20C G29U', 'self-cleavage', 0.0519),
  ('A42G C64A', 'self-cleavage', 0.302),
  ('G55A A77C', 'self-cleavage', 0.302),
  ('C61A G74C', 'self-cleavage', 0.315),
  ('C19G C75U', 'self-cleavage', 0.161),
  ('C66G U79G', 'self-cleavage', 0.772),
  ('U23G G74U', 'self-cleavage', 0.0863),
  ('G35U C66A', 'self-cleavage', 0.332),
  ('C30G G80C', 'self-cleavage', 0.0462),
  ('G17A A43G', 'self-cleavage', 0.277),
  ('G31U U69A', 'self-cleavage', 0.511);
